measurement_notes: Acute oral toxicity, rat
condition: rat, in vivo, po
quantity_name: LD50 (mg/kg)
One number for each entry, in mg/kg.

LD50 lookup needed for CCCCCCCCCCCCCCCC[n+]1ccccc1 [CPC, Cetyl Pyridinium Chloride] , thanks. 20000

These data points were gathered from patent US20080057136A1.
